target: HLA-A*02:01; test: IEDB peptide-MHC binding, purified MHC/competitive/radioactivity; bounds were set here for any values at or beyond the usual limits of such assays; conditions: source organism: Vaccinia virus WR
pIC50: −log10 of the molar value.
Definition: the class of an entry is the range in one = under 6, two = from 6 up to 7, three = 7 and over that contains its pIC50.

These recorded examples may help you get a feel for the data.
{"sequence.data": "SLNLTIVSV", "system": "HLA-A*02:01", "class.assignment": "three"}
{"sequence.data": "LAKAIITPVV", "system": "HLA-A*02:01", "class.assignment": "one"}
{"sequence.data": "AIIDIEPDL", "system": "HLA-A*02:01", "class.assignment": "two"}
{"sequence.data": "YQNEVTPEYI", "system": "HLA-A*02:01", "class.assignment": "three"}
{"sequence.data": "KQIMECSRML", "system": "HLA-A*02:01", "class.assignment": "two"}
{"sequence.data": "IVCIVAAVII", "system": "HLA-A*02:01", "class.assignment": "one"}

# next sequence below
Query block: GET /class?item= MLLHVGIPL
Result block: three
